List of pre-emergence activity against LOLRI values.
Tested on: LOLRI
Experiment: A. Herbicidal pre-emergence action on harmful plants (Tables A)
Format: in vivo, Lolium rigidum
Conditions: application rate 320 g/ha; visual grading after ca. 3 weeks vs untreated controls; 100% = plants have died off, 0% = as control plants
A number alone suffices; assume %.

Report pre-emergence activity against LOLRI, nothing else, for this compound: COCc1nn(C)cc1C(=O)N1CCCC1Cc1ccccc1C (racemic) [Example I-078]
100

Report pre-emergence activity against LOLRI, nothing else, for this compound: COCc1c(C(=O)N2CCCC2Cc2ccccc2F)cnn1C (racemic) [Example I-171]
90

Report pre-emergence activity against LOLRI, nothing else, for this compound: COCc1c(C(=O)N2CCCC2Cc2ccccc2F)cnn1C (single isomer, unassigned) [Example I-157]
90

Report pre-emergence activity against LOLRI, nothing else, for this compound: COCc1c(C(=O)N2CCCC2Cc2c(F)cccc2F)cnn1C (racemic) [Example I-124]
90

Report pre-emergence activity against LOLRI, nothing else, for this compound: C=C(c1ccccc1F)C1CCCN1C(=O)c1cn(C)nc1COC (racemic)
100

Report pre-emergence activity against LOLRI, nothing else, for this compound: COCc1nn(C)cc1C(=O)N1CCCC1Cc1cccc(F)c1F (single isomer, unassigned) [Example I-088]
100

Report pre-emergence activity against LOLRI, nothing else, for this compound: COCc1nn(C(=O)NC2CC2)cc1C(=O)N1CCCC1Cc1ccccc1F (racemic)
90

Report pre-emergence activity against LOLRI, nothing else, for this compound: COCc1nn(C)cc1C(=O)N1CCCC1Cc1cccc(F)c1F (racemic) [Example I-077]
90

Report pre-emergence activity against LOLRI, nothing else, for this compound: Cn1cc(C(=O)N2CCCC2Cc2ccccc2F)c(COCC(F)F)n1 (racemic)
90

Report pre-emergence activity against LOLRI, nothing else, for this compound: COCc1nn2c(c1C(=O)N1CCCC1Cc1ccccc1F)CCC2 (racemic)
100

Report pre-emergence activity against LOLRI, nothing else, for this compound: Cn1ncc(C(=O)N2CCCC2Cc2ccccc2F)c1COCC(F)(F)F (single isomer, unassigned)
100

Report pre-emergence activity against LOLRI, nothing else, for this compound: COCc1nn(C)cc1C(=O)N1CCCC1Cc1ccccc1F (single isomer, unassigned) [Example I-003]
100

Report pre-emergence activity against LOLRI, nothing else, for this compound: CNC(=O)n1cc(C(=O)N2CCCC2Cc2ccccc2F)c(COC)n1 (racemic)
100

Report pre-emergence activity against LOLRI, nothing else, for this compound: COCc1nn(C)cc1C(=O)N1CCCC1Cc1c(F)cccc1Cl (single isomer, unassigned)
100

Report pre-emergence activity against LOLRI, nothing else, for this compound: COCc1nn(C)cc1C(=O)N1CCCC1Cc1ccc(F)cc1F (single isomer, unassigned)
100

Report pre-emergence activity against LOLRI, nothing else, for this compound: COCc1c(C(=O)N2CCCC2Cc2cccc(F)c2F)cnn1C (single isomer, unassigned)
90

Report pre-emergence activity against LOLRI, nothing else, for this compound: CCOCc1nn(C)cc1C(=O)N1CCC1Cc1c(F)cccc1Cl (racemic)
90

From: patent EP4417602A1
